Could you please report measured KT 50 for the items listed next?
# Test system: house flies
# measurement.notes: Study of knock-down activity of house flies (direct atomization in a Kearns and March chamber)
# Format: in vivo
# reported.conditions: concentration at 0.1 g/l; female house flies 4 days old; acetone (5%) and Isopar L
Report the value in min with no unit label.

KT 50 measured on C#CCn1ccc(C(C#N)OC(=O)[C@@H]2[C@H](/C=C(/F)C(=O)OCC)C2(C)C)c1C#N (stereo partly shown) [Example 67] = 3.8

KT 50 measured on C#CCn1ccc(COC(=O)[C@@H]2[C@H](/C=C\C(=O)OC)C2(C)C)c1 [Example 1] = 1.3

KT 50 measured on C#CCn1ccc(COC(=O)[C@@H]2[C@H](/C=C\C(=O)OC)C2(C)C)c1C#N [Example 51] = 1.9

KT 50 measured on C#CCn1cc(COC(=O)[C@@H]2[C@H](/C=C(/F)C(=O)OCC)C2(C)C)c(C(F)(F)F)c1 [Example 72] = 3.8

====

# System: house flies
# measurement.notes: Study of knock-down activity of house flies (direct atomization in a Kearns and March chamber)
# Assay type: in vivo
# reported.conditions: concentration at 0.1 g/l; female house flies 4 days old; acetone (5%) and Isopar L
# Method: (1) Study of knock-down activity of house flies The test insects were female house flies 4 days old and the test was effected by direct atomization in a Kearns and March chamber using as solvent a mixture of acetone (5%) and Isopar L (petrol solvent) (quantity of solvent used, 2 ml in one second). 50 insects were used per treatment and checks were made every minute for 10 minutes, then at 15 minutes, and the KT50 was determined by the usual methods.
attribute.measured: KT 50 (min)
Report the value in min with no unit label.

KT 50 measured on `C=CCn1cc(COC(=O)[C@@H]2[C@H](/C=C(/F)C(=O)OCC)C2(C)C)cc1C#N` = 2.4

KT 50 measured on C#CCn1ccc(C(C#N)OC(=O)[C@@H]2[C@H](/C=C(/F)C(=O)OCC)C2(C)C)c1 (some centres unmarked) = 1.8

KT 50 measured on `C#CCn1ccc(COC(=O)[C@@H]2[C@H](/C=C(/F)C(=O)OC(C)(C)C)C2(C)C)c1` = 3.2

KT 50 measured on `C#CCn1ccc(COC(=O)[C@@H]2[C@H](/C=C(/F)C(=O)OC)C2(C)C)c1` = 2.4

KT 50 measured on `C#CCn1ccc(COC(=O)[C@@H]2[C@H](/C=C(\Cl)C(F)(F)F)C2(C)C)c1C#N` = 2.9

KT 50 measured on C=CCn1cc(C(C#N)OC(=O)[C@@H]2[C@H](C=C(Br)Br)C2(C)C)cc1C#N (some centres unmarked) = 8.7

KT 50 measured on C#CCn1cc(C(C#C)OC(=O)[C@@H]2[C@H](/C=C(/F)C(=O)OCC)C2(C)C)cc1C#N (some centres unmarked) = 4.0

KT 50 measured on `C#CCn1ccc(COC(=O)[C@@H]2[C@@H](C=C(Cl)C(F)(F)F)C2(C)C)c1C#N` = 11.0

====

Could you please report measured KT 50 for the items listed next?
# Tested on: house flies
# measurement.notes: Study of knock-down activity of house flies (direct atomization in a Kearns and March chamber)
# Assay type: in vivo
# reported.conditions: concentration at 0.1 g/l; female house flies 4 days old; acetone (5%) and Isopar L
Report the value in min with no unit label.

KT 50 measured on C=CCn1ccc(COC(=O)[C@@H]2[C@H](/C=C(/F)C(=O)OCC)C2(C)C)c1 [Example 56] = 4.0

KT 50 measured on C#CCn1cc(COC(=O)[C@@H]2[C@H](/C=C(/F)C(=O)OC(C)(C)C)C2(C)C)c(C(F)(F)F)c1 [Example 45] = 6.1

KT 50 measured on C#CCn1ccc(COC(=O)[C@@H]2[C@H](C=C(Br)Br)C2(C)C)c1 (relative stereo) [Example 6] = 4.7

KT 50 measured on C=CCn1ccc(C(C#N)OC(=O)[C@@H]2[C@H](C=C(Br)Br)C2(C)C)c1 (stereo partly drawn) [Example 50] = 3.5

KT 50 measured on C#CCn1cc(COC(=O)[C@@H]2[C@H](/C=C(/F)C(=O)OCC)C2(C)C)cc1C(F)(F)F [Example 70] = 3.9

KT 50 measured on C#CCn1ccc(COC(=O)[C@@H]2[C@H](/C=C(/F)C(=O)OC(C)(C)C)C2(C)C)c1C(F)(F)F [Example 40] = 5.6

KT 50 measured on C#CCn1ccc(COC(=O)[C@@H]2[C@H](/C=C\C(=O)OC(C)(C)C)C2(C)C)c1 [Example 3] = 5.8

KT 50 measured on C#CCn1cc(C(C#N)OC(=O)[C@@H]2[C@H](/C=C(/F)C(=O)OCC)C2(C)C)cc1C#N (stereo partly drawn) [Example 44] = 2.2

KT 50 measured on C#CCn1ccc(COC(=O)[C@@H]2[C@H](C=C(Br)Br)C2(C)C)c1C#N [Example 26] = 3.5

KT 50 measured on C=CCn1cc(COC(=O)[C@@H]2[C@H](C=C(Br)Br)C2(C)C)cc1C#N (relative stereo) [Example 54] = 4.7

KT 50 measured on C#CCn1ccc(COC(=O)[C@@H]2[C@H](/C=C(/F)C(=O)OCC)C2(C)C)c1 [Example 2] = 1.6

KT 50 measured on C#CCn1cc(C(C)OC(=O)[C@@H]2[C@H](/C=C(/F)C(=O)OCC)C2(C)C)cc1C#N (stereo partly drawn) [Example 60] = 1.8

KT 50 measured on C#CCn1ccc(COC(=O)[C@@H]2[C@H](/C=C(/F)C(=O)OCC)C2(C)C)c1C#N [Example 52] = 1.5

KT 50 measured on CCOC(=O)/C(F)=C\[C@H]1[C@@H](C(=O)OCc2cc(C#N)n(C/C=C/Cl)c2)C1(C)C [Example 66] = 7.9

KT 50 measured on CCOC(=O)/C(F)=C\[C@H]1[C@@H](C(=O)OCc2cc(C#N)n(C/C=C\Cl)c2)C1(C)C [Example 65] = 3.1

====

Could you please report measured lethal concentration 50 (LC 50) for the items listed next?
# Test system: cockroaches (Blatella germanica)
# measurement.notes: Study of activity by tarsal contact on cockroaches
# Type: in vivo
# reported.conditions: male Blatella germanica; 1 hour on dried acetone deposit; mortality checked at 24 hours, 48 hours, 3 days and 5 days
Report the value in mg/m^2 with no unit label.

lethal concentration 50 (LC 50) measured on `C#CCn1cc(COC(=O)[C@@H]2[C@H](/C=C(/F)C(=O)OCC)C2(C)C)c(C(F)(F)F)c1` = 6.7

lethal concentration 50 (LC 50) measured on `C#CCn1ccc(COC(=O)[C@@H]2[C@H](/C=C(\Cl)C(F)(F)F)C2(C)C)c1C#N` = 2.8

lethal concentration 50 (LC 50) measured on `C#CCn1cc(COC(=O)[C@@H]2[C@H](/C=C(/F)C(=O)OCC)C2(C)C)cc1C(F)(F)F` = 4.5

lethal concentration 50 (LC 50) measured on `C#CCn1cc(COC(=O)[C@@H]2[C@H](/C=C(/F)C(=O)OC(C)(C)C)C2(C)C)c(C(F)(F)F)c1` = 6.4
